target: Histone deacetylase (Homo sapiens) (UniProt Q13547+O15379+Q9UBN7+Q92769+Q9UQL6+Q8WUI4+Q9BY41+Q96DB2+P56524+Q9UKV0+Q969S8); details: HeLa, at 0.1 µM;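 also: HDAC activity in human HeLa cell extract tracked by fluorescence spectrophotometry of released fluorophore, compound tested at 0.1 µM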
Description: Inhibition of HDAC in human HeLa cell extract assessed as fluorophore release at 0.1 uM by fluorescence spectrophotometry
measured_metric: inhibition (%)

Example entries begin here.
[
  {
    "record_smiles": "O=C(CCCC1CCN(S(=O)(=O)c2ccc(-c3cnco3)cc2)CC1)NO",
    "inhibition (%)": 35
  },
  {
    "record_smiles": "COc1ccc(S(=O)(=O)N2CCC(CCCC(=O)NO)CC2)cc1OC",
    "inhibition (%)": 31
  },
  {
    "record_smiles": "O=C(CCCC1CCN(S(=O)(=O)c2ccc3c(c2)CCO3)CC1)NO",
    "inhibition (%)": 36
  },
  {
    "record_smiles": "CC1(C)CCc2cc(S(=O)(=O)N3CCC(CCCC(=O)NO)CC3)ccc2O1",
    "inhibition (%)": 30
  },
  {
    "record_smiles": "CN1CCOc2cc(S(=O)(=O)N3CCC(CCCC(=O)NO)CC3)ccc21",
    "inhibition (%)": 32
  },
  {
    "record_smiles": "O=C(CCCC1CCN(S(=O)(=O)c2ccc(-c3ccccc3)cc2)CC1)NO",
    "inhibition (%)": 20
  },
  {
    "record_smiles": "O=C(CCCC1CCN(S(=O)(=O)c2cccc3ccccc23)CC1)NO",
    "inhibition (%)": 40
  },
  {
    "record_smiles": "O=C(CCCC1CCN(S(=O)(=O)c2ccc(F)cc2)CC1)NO",
    "inhibition (%)": 21
  },
  {
    "record_smiles": "Cc1ccc(S(=O)(=O)N2CCC(CCCC(=O)NO)CC2)cc1",
    "inhibition (%)": 28
  },
  {
    "record_smiles": "O=C(CCCC1CCN(S(=O)(=O)c2ccc3c(c2)OCCO3)CC1)NO",
    "inhibition (%)": 29
  }
]

P = Cc1cc(C)c(S(=O)(=O)N2CCC(CCCC(=O)NO)CC2)c(C)c1
Q = CN(c1ccccc1)S(=O)(=O)N1CCC(CCCC(=O)NO)CC1
R = O=C(CCCC1CCN(S(=O)(=O)c2ccc3ccccc3c2)CC1)NO
S = O=C(CCCC1CCN(S(=O)(=O)c2cccc(Cl)c2)CC1)NO
Input: In this exercise, place the 4 compounds in ascending sequence of their recorded inhibition. Quick reminder: the answer is the labels in the order asked.
Output: S, Q, P, R
(S: 4%, Q: 19%, P: 32%, R: 53%)

I = O=C(CCCC1CCN(S(=O)(=O)NCc2ccccc2)CC1)NO
II = O=C(CCCC1CCN(S(=O)(=O)c2ccc(C(F)(F)F)cc2)CC1)NO
Input: Given the listed items, does I or II have the lesser reported inhibition? Could you answer with the label of the item you picked?
Output: II
(II: 15%, I: 29%)

a = Cc1cccc(S(=O)(=O)N2CCC(CCCC(=O)NO)CC2)c1
b = O=C(CCCC1CCN(S(=O)(=O)Nc2ccccc2)CC1)NO
Input: Which shows the larger inhibition value: a or b ? To answer, give the label that identifies your chosen option.
Output: b

P = O=C(CCCC1CCN(S(=O)(=O)c2ccc3ncsc3c2)CC1)NO
Q = O=C(CCCC1CCN(S(=O)(=O)Cc2ccccc2)CC1)NO
Input: In the pair P and Q , the larger recorded inhibition belongs to which? Answer by stating the label of the chosen item.
Output: P
